experimentalSystem: Brd4 bromodomain 1 (Homo sapiens)
Construct: made in house; host or cells: E. coli BL21(DE3)
methodNotes: Inhibition of binding of tetra-acetylated histone H4 to Brd4 bromodomain 1 (TR-FRET)
testSettings: His-tagged Brd4 bromodomain 1 200 nM, tetra-acetylated histone H4 peptide 25-50 nM, 2 hours room temperature
readout: FRET activity (<50 uM)

Worked set:
What does the data say about its FRET activity (<50 uM)? Entry: Cc1cc(-c2nc3cccc(Cl)c3c(=O)[nH]2)cc(C)c1OCCN1CCCC1
Inactive

What does the data say about its FRET activity (<50 uM)? Entry: COc1cc(OCCOc2ccccc2)c2c(=O)[nH]c(-c3cc(C)nc(C)c3)nc2c1
Active

What does the data say about its FRET activity (<50 uM)? Entry: COc1cc(OC)c2c(=O)[nH]c(-c3cc(C)c(OCCN4CCCCC4)c(C)c3)nc2c1
Active

What does the data say about its FRET activity (<50 uM)? Entry: COc1cc(OC)c2c(=O)[nH]c(-c3ccc(Cc4nnn[nH]4)cc3)nc2c1
Active

What does the data say about its FRET activity (<50 uM)? Entry: COc1cc(OC)c2c(=O)[nH]c(-c3ccc(N4C[C@@H](C)N(C(C)=O)[C@@H](C)C4)cc3)nc2n1
Active

Next molecule, FRET activity (<50 uM) to be filled in.
What does the data say about its FRET activity (<50 uM)? Entry: Cc1cc(-c2nc3cc(F)cc(N4CCCC4)c3c(=O)[nH]2)cc(C)c1OCCN1CCCC1
Inactive
